system: Mycobacterium tuberculosis; test: Antimycobacterial activity against Mycobacterium tuberculosis H37Rv assessed as reduction in bacterial growth incubated for 5 days by resazurin dye based assay; type: functional; details: 120 h, time 5 day
Items are presented alongside their recorded MIC90.
assay readout: MIC90

>>> print(df.to_string())
                      compound_smiles                      target  assay_readout   result
0    CCCCCCCCCCOC(=O)C(=O)N(O)C1CCCC1  Mycobacterium tuberculosis          MIC90  2.45 µM
1              O=C(O)C(=O)N(O)C1CCCC1  Mycobacterium tuberculosis          MIC90   219 µM
2      CCCCCCCCOC(=O)C(=O)N(O)C1CCCC1  Mycobacterium tuberculosis          MIC90  2.32 µM
3  CCCCCCCCCCCCOC(=O)C(=O)N(O)C1CCCC1  Mycobacterium tuberculosis          MIC90  2.97 µM

----------
Items are presented alongside their recorded log10 Ki.
assay: Inhibition of Mycobacterium tuberculosis KARI using 2-acetolactate as substrate preincubated for 30 mins in presence of Mg2+ and NADPH followed by substrate addition by Morrison's equation analysis
assay readout: log10 Ki (log10 of the value in nM)

>>> df
                                   molecule  quantitative_readout
0  CCOC(=O)C(=O)N(O)C(C)c1ccccc1 (stereo not given)                  2.18
1  CC(c1ccccc1)N(O)C(=O)C(=O)O (stereo not given)                  1.99
2                   O=C(O)C(=O)N(O)C1CCCCC1                  1.60
3  CC(C)CC(C)N(O)C(=O)C(=O)O (stereo not given)                  2.82
4  CCOC(=O)C(=O)N(O)C(C)CC(C)C (stereo not given)                  3.42
5                 CCOC(=O)C(=O)N(O)C1CCCCC1                  3.01
6                 CCOC(=O)C(=O)N(O)C1CCNCC1                  3.49
7                  CCOC(=O)C(=O)N(O)C1CCCC1                  1.51
8                    O=C(O)C(=O)N(O)C1CCCC1                  1.29

----------
Items are presented alongside their recorded pKi.
experiment: Inhibition of Mycobacterium tuberculosis KARI using 2-acetolactate as substrate preincubated for 30 mins in presence of Mg2+ and NADPH followed by substrate addition by Morrison's equation analysis
pKi: −log10 of the molar value.
assay readout: pKi

In [3]: df
Out[3]:
                             compound_smiles  assay_readout  result
 0                     O=C(O)C(=O)NCc1ccccc1            pKi  < 4.70
 1                        CCN(CC)C(=O)C(=O)O            pKi  < 4.70
 2  CCOC(=O)C(=O)N(O)C1CCN(C(=O)OC(C)(C)C)CC1            pKi  < 4.70
 3                      CCOC(=O)C(=O)N(CC)CC            pKi  < 4.70
 4            O=C(O)C(=O)N(C1CCCCC1)C1CCCCC1            pKi  < 4.70
 5                   CCOC(=O)C(=O)NCc1ccccc1            pKi  < 4.70
 6          CCOC(=O)C(=O)N(C1CCCCC1)C1CCCCC1            pKi  < 4.70
 7                         CC(C)NC(=O)C(=O)O            pKi  < 4.70
 8                   O=C(O)CC(=O)N(O)C1CCCC1            pKi  < 4.70
 9                  COC(=O)CC(=O)N(O)C1CCCC1            pKi  < 4.70
10                        CC(C)CNC(=O)C(=O)O            pKi  < 4.70
